Assay: Cytotoxicity in dog MDCK cells assessed as reduction in cell viability incubated for 48 hrs by crystal violet staining based assay
Design: species or system Canis lupus familiaris
METRIC: CC50 at 48 h (mM)
Provide the reading as a plain figure in mM.

response.value for CC(=O)c1cc(C)c(O)c(Cc2[nH]c3ccc(C)cc3c2Cc2c(O)c(C)cc(C(C)=O)c2O)c1O (field: CC50 at 48 h) = 0.681

GET /value?item= CC(=O)c1cc(C)c(O)c(Cc2[nH]c3ccccc3c2Cc2c(O)c(C)cc(C(C)=O)c2O)c1O &field=CC50 at 48 h returns 1.47

====

Test: Tmax in rat at 3.5 mg/kg , po administered as single dose
Format: ADME, organism-based
Details: in vivo
METRIC: Tmax (h)
Answer with a number only, understood to be in h.

molecule CC(=O)c1cc(C)c(O)c(Cc2[nH]c3ccccc3c2Cc2c(O)c(C)cc(C(C)=O)c2O)c1O , Tmax observed: 4.3
